Target: human LPAR1 (Homo sapiens (Human))
Test: LPAR1 intracellular calcium mobilization assay (antagonist mode, FLIPR)
Format: cell-based
Conditions: CHO-K1 EDG2 cells expressing human LPAR1, LPA 18:2 at EC80 (100 nM), test compound 0.5 nM to 10 μM
Output Yes for records whose EC50 is lower than 2000 nM, No for records at or above 2000 nM.

// known answers, use as guide
compound: C[C@@H](OC(=O)Nc1c(-c2ccc(NC(=O)C3[C@@H]4COC[C@@H]34)cn2)nnn1C)c1cccnc1Cl (stereo partly shown)
group_label: Yes

compound: CO[C@]1(C#N)C[C@@H](C(=O)Nc2cnc(-c3nnn(C)c3NC(=O)O[C@H](C)c3cc(F)cnc3F)nc2)C1
group_label: No

compound: C[C@@H](OC(=O)Nc1c(-c2cc(F)c(NC(=O)C34CC(C#N)(C3)C4)cn2)nnn1C)c1cccnc1Cl
group_label: Yes

compound: C[C@@H](OC(=O)Nc1c(-c2ccc(NC(=O)c3cnc(C4CC4)o3)cn2)nnn1C)c1cc(F)cnc1F
group_label: Yes

compound: C[C@@H](OC(=O)Nc1c(-c2ccc(NC(=O)c3c[nH]cn3)cn2)nnn1C)c1cccnc1Cl
group_label: Yes

Query string: Determine whether this compound shows EC50 lower than 2000 nM (ties excluded): `C[C@@H](OC(=O)Nc1c(-c2ccc(NC=O)cn2)nnn1C)c1cccnc1Cl`
Result string: No

Query string: Here's an entry: `C[C@@H](OC(=O)Nc1c(-c2ccc(NC(=O)C3CC4(CCC4)C3)cn2)nnn1C)c1cccnc1Cl` . Is its EC50 below 2000 nM?
Result string: Yes

---

Target: human LPAR1 (Homo sapiens (Human), UniProt Q92633)
Sequence (Q92633 whole entry): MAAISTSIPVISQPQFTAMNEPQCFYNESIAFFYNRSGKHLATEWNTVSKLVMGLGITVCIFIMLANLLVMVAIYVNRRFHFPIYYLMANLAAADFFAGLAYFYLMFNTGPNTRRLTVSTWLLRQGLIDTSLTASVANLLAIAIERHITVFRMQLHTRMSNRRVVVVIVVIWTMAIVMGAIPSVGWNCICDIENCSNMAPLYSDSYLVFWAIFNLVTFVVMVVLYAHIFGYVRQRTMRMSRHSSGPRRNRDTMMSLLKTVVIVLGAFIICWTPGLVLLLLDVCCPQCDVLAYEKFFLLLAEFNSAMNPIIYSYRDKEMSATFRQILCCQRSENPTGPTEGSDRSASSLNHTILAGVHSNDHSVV
Assay: LPAR1 intracellular calcium mobilization assay (antagonist mode, FLIPR)
Assay type: cell-based
Settings: CHO-K1 EDG2 cells expressing human LPAR1, LPA 18:2 at EC80 (100 nM), test compound 0.5 nM to 10 μM
outcome_measure: log10 of EC50 (log10 of the value in nM)
Parameter value (number): base-10 log of EC50 in nM.

// known answers, use as guide
molecule: C[C@@H](OC(=O)Nc1c(-c2ccc(NC(=O)C3(C)CC3)cn2)nnn1C)c1cccnc1Cl
subject_of_test: human LPAR1 (Homo sapiens (Human), UniProt Q92633)
log10 of EC50: 2.90

molecule: CC(OC(=O)Nc1c(-c2ccc(NC(=O)C3(C#N)CC3)cn2)nnn1C)c1ccc(F)nc1Cl (centres unmarked)
subject_of_test: human LPAR1 (Homo sapiens (Human), UniProt Q92633)
log10 of EC50: 2.63

molecule: C[C@@H](OC(=O)Nc1c(-c2ccc(NC(=O)C3(F)CC(F)C3)cn2)nnn1C)c1cccnc1Cl (some centres unmarked)
subject_of_test: human LPAR1 (Homo sapiens (Human), UniProt Q92633)
log10 of EC50: 2.41

molecule: C[C@@H](OC(=O)Nc1c(-c2ccc(NC(=O)C3(C#N)CCC3)cn2)nnn1C)c1cccnc1Cl
subject_of_test: human LPAR1 (Homo sapiens (Human), UniProt Q92633)
log10 of EC50: 1.82

molecule: C[C@@H](OC(=O)Nc1c(-c2ccc(NC(=O)C3(C(F)(F)F)CCC3)cn2)nnn1C)c1cccnc1Cl
subject_of_test: human LPAR1 (Homo sapiens (Human), UniProt Q92633)
log10 of EC50: 1.36

molecule: C[C@@H](OC(=O)Nc1c(-c2ccc(NC(=O)C34CC(F)(C3)C4)cn2)nnn1C)c1cccnc1F
subject_of_test: human LPAR1 (Homo sapiens (Human), UniProt Q92633)
log10 of EC50: 2.26

molecule: C[C@@H](OC(=O)Nc1c(-c2cnc(NC(=O)c3ccnc(F)c3F)cn2)nnn1C)c1cc(F)cnc1F
subject_of_test: human LPAR1 (Homo sapiens (Human), UniProt Q92633)
log10 of EC50: 2.25

molecule: C[C@@H](OC(=O)Nc1c(-c2ccc(NC(=O)[C@@H]3C[C@H]3C(F)(F)F)cn2)nnn1C)c1cc(F)cnc1F (mixture of isomers)
subject_of_test: human LPAR1 (Homo sapiens (Human), UniProt Q92633)
log10 of EC50: 1.25

molecule: CC(=O)NC12CC(C(=O)Nc3ccc(-c4nnn(C)c4NC(=O)O[C@H](C)c4cccnc4Cl)nc3)(C1)C2
subject_of_test: human LPAR1 (Homo sapiens (Human), UniProt Q92633)
log10 of EC50: 3.18

molecule: COCC(=O)Nc1ccc(-c2nnn(C)c2NC(=O)O[C@H](C)c2cccnc2Cl)nc1
subject_of_test: human LPAR1 (Homo sapiens (Human), UniProt Q92633)
log10 of EC50: 3.37

Reported log10 of EC50 of `C[C@@H](OC(=O)Nc1c(-c2ccc(NC(=O)C3(C#N)CC3)cn2)nnn1C)c1cc(F)cnc1F` : 1.71

molecule C[C@@H](OC(=O)Nc1c(-c2ccc(NC(=O)C3(CN)CC3(F)F)cn2)nnn1C)c1cc(F)cnc1F (some centres unmarked) , log10 of EC50 observed: 2.98

Entry `C[C@@H](OC(=O)Nc1c(-c2ccc(NC(=O)C3(C(F)F)CC3)cn2)nnn1C)c1cccnc1Cl` , log10 of EC50 reported as 2.51

The recorded log10 of EC50 for entry C[C@@H](OC(=O)Nc1c(-c2ccc(NC(=O)[C@@H]3C[C@H]3C(F)F)cn2)nnn1C)c1cc(F)cnc1F (mixture of isomers) equals 1.35

---

Biological target: human LPAR1 (Homo sapiens (Human), UniProt Q92633)
Test: LPAR1 intracellular calcium mobilization assay (antagonist mode, FLIPR)
Type: cell-based
Settings: CHO-K1 EDG2 cells expressing human LPAR1, LPA 18:2 at EC80 (100 nM), test compound 0.5 nM to 10 μM
outcome_measure: EC50 (nM)
Value expressed in nM; do not type the unit.

compound: C[C@@H](OC(=O)Nc1c(-c2ccc(NC(=O)C34CC(C5COC5)(C3)C4)cn2)nnn1C)c1cccnc1Cl [Compound 44]
endpoint_value: 165

compound: C[C@@H](OC(=O)Nc1c(-c2cnc(NC(=O)c3ccc(C(F)(F)F)nc3)cn2)nnn1C)c1cccnc1F [Compound 326]
endpoint_value: 305

compound: CC#CC(=O)Nc1ccc(-c2nnn(C)c2NC(=O)O[C@H](C)c2cccnc2Cl)nc1 [Compound 76]
endpoint_value: 275

compound: CC(C#N)C(=O)Nc1ccc(-c2nnn(C)c2NC(=O)O[C@H](C)c2cccnc2Cl)nc1 (some centres unmarked) [Compound 143]
endpoint_value: 189

compound: Cc1noc2cc(C(=O)Nc3ccc(-c4nnn(C)c4NC(=O)O[C@H](C)c4cc(F)cnc4F)nc3)ccc12 [Compound 279]
endpoint_value: 97.4

compound: C[C@@H](OC(=O)Nc1c(-c2cnc(NC(=O)c3ccc(Cl)nc3)cn2)nnn1C)c1cc(F)cnc1F [Compound 320]
endpoint_value: 131

The compound listed as C[C@@H](OC(=O)Nc1c(-c2ccc(NC(=O)C34CCC(O)(CC3)CC4)cn2)nnn1C)c1cccnc1Cl [Compound 115] has a reported EC50 of 654

Kindly note the recorded EC50 for C[C@@H](OC(=O)Nc1c(-c2ccc(NC(=O)C3CNC3)cn2)nnn1C)c1cccnc1Cl [Compound 38] , which is 10000

For this compound ( C[C@@H](OC(=O)Nc1c(-c2ccc(NC(=O)c3cccnc3)cn2)nnn1C)c1cccnc1Cl [Compound 58] ), measured EC50 is 205

---

Biological target: human LPAR1 (Homo sapiens (Human))
Test: LPAR1 intracellular calcium mobilization assay (antagonist mode, FLIPR)
Type: cell-based
Conditions: CHO-K1 EDG2 cells expressing human LPAR1, LPA 18:2 at EC80 (100 nM), test compound 0.5 nM to 10 μM
outcome_measure: EC50 (nM)
Give a bare numeral; the unit nM is implied.

As a guide, the following entries are already answered.
compound: Cc1ncc(F)cc1[C@@H](C)OC(=O)Nc1c(-c2ccc(NC(=O)[C@@H]3C[C@H]3F)cn2)nnn1C [Compound 176]
subject_of_test: human LPAR1 (Homo sapiens (Human))
display_unit: nM
EC50: 253
//
compound: C[C@@H](OC(=O)Nc1c(-c2ccc(NC(=O)C3CC(C)(C)C3)cn2)nnn1C)c1cccnc1Cl [Compound 84]
subject_of_test: human LPAR1 (Homo sapiens (Human))
display_unit: nM
EC50: 14.5
//
compound: C[C@@H](OC(=O)Nc1c(-c2ccc(NC(=O)[C@@H]3C[C@H]3C#N)cn2)nnn1C)c1cccnc1Cl [Compound 51]
subject_of_test: human LPAR1 (Homo sapiens (Human))
display_unit: nM
EC50: 88.7
//
compound: C[C@@H](OC(=O)Nc1c(-c2ccc(NC(=O)C34CC(C#N)(C3)C4)cn2)nnn1C)c1cc(F)cnc1Cl [Compound 167]
subject_of_test: human LPAR1 (Homo sapiens (Human))
display_unit: nM
EC50: 99.4

I looked up C[C@@H](OC(=O)Nc1c(-c2ccc(NC(=O)C34CC(C#N)(C3)C4)cn2)nnn1C)c1cccnc1F [Compound 174] and its EC50 for human LPAR1 (Homo sapiens (Human)) was 107

Field EC50 (system: human LPAR1 (Homo sapiens (Human))) for entry CC(=O)Nc1ccc(-c2nnn(C)c2NC(=O)O[C@H](C)c2cccnc2Cl)cc1 [Compound 6] = 1860

Noted EC50 for Cc1ncc(F)cc1[C@@H](C)OC(=O)Nc1c(-c2ccc(NC(=O)C3(C#N)CC3)cn2)nnn1C [Compound 177] , tested on human LPAR1 (Homo sapiens (Human)): 48.3

From: patent US11912686B2
